Record form. Attribute: half-life. Fill in for each entry.
# procedure-summary: Stability in human plasma
# Type: in vitro ADME
# details: human, plasma; 2 μM, 37° C.; read-out: half-life (t1/2) in human plasma
Where a SMILES comes first, the peptide text is derived from it. [ ]: non-standard residue; d: D form. ξ: configuration not given here. ξαMeBip(2'-Et,4'-OMe) = CCc1cc(OC)ccc1-c1ccc(CC(C)(N)C(=O)O)cc1; ξαMePhe(2,6-F2) = CC(N)(Cc1c(F)cccc1F)C(=O)O; ξαMe(hhPhe) = CC(N)(CCCc1ccccc1)C(=O)O; ξαMePhe(2-F) = CC(N)(Cc1ccccc1F)C(=O)O; ξhhPhe = NC(CCCc1ccccc1)C(=O)O; ξαMeD = CC(N)(CC(=O)O)C(=O)O
Supply the numeric figure in h, leaving out any unit text.

According to the records, this compound CCc1cc(OC)ccc1-c1ccc(CC(C)(NC(=O)C(C)(CC(=O)O)NC(=O)[C@H](CO)NC(=O)[C@@H](NC(=O)C(C)(Cc2ccccc2F)NC(=O)[C@@H](NC(=O)CNC(=O)[C@H](CCC(=O)O)NC(=O)[C@H](CO)NC(=O)[C@H](Cc2c[nH]cn2)NC(=O)[C@@H](N)C(C)C)[C@@H](C)O)[C@@H](C)O)C(=O)NC(CCCc2ccccc2)C(N)=O)cc1 (some centres unmarked) [compound 69] (H-VHSEGT[ξαMePhe(2-F)]TS[ξαMeD][ξαMeBip(2'-Et,4'-OMe)][ξhhPhe]-NH2) displays half-life of 8

// half-life value for CCc1cc(OC)ccc1-c1ccc(CC(C)(NC(=O)C(C)(CC(=O)O)NC(=O)[C@H](CO)NC(=O)[C@@H](NC(=O)C(C)(Cc2c(F)cccc2F)NC(=O)[C@@H](NC(=O)CNC(=O)[C@H](CCC(=O)O)NC(=O)[C@H](CO)NC(=O)[C@H](Cc2c[nH]cn2)NC(=O)[C@@H](N)C(C)C)[C@@H](C)O)[C@@H](C)O)C(=O)NC(C)(CCCc2ccccc2)C(N)=O)cc1 (some centres unmarked) [compound 201] (H-VHSEGT[ξαMePhe(2,6-F2)]TS[ξαMeD][ξαMeBip(2'-Et,4'-OMe)][ξαMe(hhPhe)]-NH2) : 8

* * *

# procedure-summary: Stability in human plasma
# Assay type: in vitro ADME
# details: 2 μM, 37° C., 24 h
# Experimental: Different peptidomimetics (final concentration 2 μM) were incubated with either DPP IV (1:25 mU) or pooled human plasma (7.5 μL) or simulated gastric fluid (pH 1.5; composition HCl, NaCl and Pepsin) or simulated intestinal fluid (pH 7.5) or human liver microsomes, for 0, 2, 4, 6, 12 and 24 h (37° C.; 50 mM triethanolamine-HCl buffer; pH 7.8). […] The absorbance was monitored at 206 nm using UV detector and peaks were collected manually prior to ESI-MS analysis. […]
Where a SMILES comes first, the peptide text is derived from it. [ ]: non-standard residue; d: D form. ξ: configuration not given here. ξαMeBip(2'-Et,4'-OMe) = CCc1cc(OC)ccc1-c1ccc(CC(C)(N)C(=O)O)cc1; ξαMePhe(2,6-F2) = CC(N)(Cc1c(F)cccc1F)C(=O)O; ξαMe(hhPhe) = CC(N)(CCCc1ccccc1)C(=O)O; ξαMePhe(2-F) = CC(N)(Cc1ccccc1F)C(=O)O; ξhhPhe = NC(CCCc1ccccc1)C(=O)O; ξαMeD = CC(N)(CC(=O)O)C(=O)O; ξαMeP = CC1(C(=O)O)CCCN1; ξαMeS = CC(N)(CO)C(=O)O
experimental-endpoint: % degradation in 24 h when incubated with human plasma (%)
Expressed in %, but write only the number.

// recorded % degradation in 24 h when incubated with human plasma for CCc1cc(OC)ccc1-c1ccc(CC(C)(NC(=O)C(C)(CC(=O)O)NC(=O)[C@H](CO)NC(=O)[C@@H](NC(=O)C(C)(Cc2c(F)cccc2F)NC(=O)[C@@H](NC(=O)CNC(=O)[C@H](CCC(=O)O)NC(=O)[C@H](CO)NC(=O)[C@H](Cc2c[nH]cn2)NC(=O)[C@@H](N)C(C)C)[C@@H](C)O)[C@@H](C)O)C(=O)NC(C)(CCCc2ccccc2)C(N)=O)cc1 (stereo partly drawn) [compound 201] (H-VHSEGT[ξαMePhe(2,6-F2)]TS[ξαMeD][ξαMeBip(2'-Et,4'-OMe)][ξαMe(hhPhe)]-NH2) : 77

Item: CCc1cc(OC)ccc1-c1ccc(CC(C)(NC(=O)[C@H](CC(=O)O)NC(=O)C(C)(CO)NC(=O)[C@@H](NC(=O)[C@H](Cc2ccccc2)NC(=O)[C@@H](NC(=O)CNC(=O)[C@H](CCC(=O)O)NC(=O)[C@H](C)NC(=O)[C@H](Cc2c[nH]cn2)NC(=O)[C@@H](N)C(C)C)[C@@H](C)O)[C@@H](C)O)C(=O)NC(CCCc2ccccc2)C(N)=O)cc1 (stereo partly drawn) [compound 38] (H-VHAEGTFT[ξαMeS]D[ξαMeBip(2'-Et,4'-OMe)][ξhhPhe]-NH2) | % degradation in 24 h when incubated with human plasma: 00

// % degradation in 24 h when incubated with human plasma lookup, molecule = CCc1cc(OC)ccc1-c1ccc(CC(C)(NC(=O)C(C)(CC(=O)O)NC(=O)[C@H](CO)NC(=O)[C@@H](NC(=O)C(C)(Cc2ccccc2F)NC(=O)[C@@H](NC(=O)CNC(=O)[C@H](CCC(=O)O)NC(=O)[C@H](CO)NC(=O)[C@H](Cc2c[nH]cn2)NC(=O)[C@@H](N)C(C)C)[C@@H](C)O)[C@@H](C)O)C(=O)NC(CCCc2ccccc2)C(N)=O)cc1 (stereo partly drawn) [compound 69] (H-VHSEGT[ξαMePhe(2-F)]TS[ξαMeD][ξαMeBip(2'-Et,4'-OMe)][ξhhPhe]-NH2) , result: 78

Briefly, % degradation in 24 h when incubated with human plasma measured for CCc1cc(OC)ccc1-c1ccc(CC(C)(NC(=O)[C@H](CC(=O)O)NC(=O)C(C)(CO)NC(=O)[C@@H](NC(=O)C(C)(Cc2ccccc2F)NC(=O)[C@@H](NC(=O)CNC(=O)[C@H](CCC(N)=O)NC(=O)[C@H](CO)NC(=O)[C@H](Cc2c[nH]cn2)NC(=O)[C@@H](N)C(C)C)[C@@H](C)O)[C@@H](C)O)C(=O)NC(C)(CCCc2ccccc2)C(N)=O)cc1 (stereo partly drawn) [compound 165] (H-VHSQGT[ξαMePhe(2-F)]T[ξαMeS]D[ξαMeBip(2'-Et,4'-OMe)][ξαMe(hhPhe)]-NH2) : 70

// % degradation in 24 h when incubated with human plasma value for CCc1cc(OC)ccc1-c1ccc(CC(C)(NC(=O)[C@H](CC(=O)O)NC(=O)C(C)(CO)NC(=O)[C@@H](NC(=O)C(C)(Cc2ccccc2F)NC(=O)[C@@H](NC(=O)CNC(=O)[C@H](CCC(=O)O)NC(=O)[C@H](C)NC(=O)[C@H](Cc2c[nH]cn2)NC(=O)[C@@H](N)C(C)C)[C@@H](C)O)[C@@H](C)O)C(=O)NC(C)(CCCc2ccccc2)C(N)=O)cc1 (stereo partly drawn) [compound 170] (H-VHAEGT[ξαMePhe(2-F)]T[ξαMeS]D[ξαMeBip(2'-Et,4'-OMe)][ξαMe(hhPhe)]-NH2) : 00

Entry CCc1cc(OC)ccc1-c1ccc(CC(C)(NC(=O)[C@H](CC(=O)O)NC(=O)[C@H](CO)NC(=O)[C@@H](NC(=O)[C@H](Cc2ccccc2)NC(=O)[C@@H](NC(=O)CNC(=O)[C@H](CCC(=O)O)NC(=O)C2(C)CCCN2C(=O)[C@H](Cc2c[nH]cn2)NC(=O)[C@@H](N)C(C)C)[C@@H](C)O)[C@@H](C)O)C(=O)NC(C)(CCCc2ccccc2)C(N)=O)cc1 (stereo partly drawn) [compound 140] (H-VH[ξαMeP]EGTFTSD[ξαMeBip(2'-Et,4'-OMe)][ξαMe(hhPhe)]-NH2) ; % degradation in 24 h when incubated with human plasma = 70

FYI, the data here is from patent US20120264685A1.
